- System: Rice Blast (Magnaporthe grisea)
- Assay type: in vivo
- measurement-conditions: foliar spray before inoculation, vs untreated inoculated controls
property-name: Level of Plant Disease Control, Rice Blast

{"cpd-smiles": "COc1cc(C)c(C(=O)c2c(C)ccc3ccccc23)c(OCc2ccccc2F)c1OC", "value": 0}
{"cpd-smiles": "COc1cc(C)c(C(=O)c2c(OC)ccc(Br)c2C)c(OCc2ccc(Cl)cc2)c1OC", "value": 0}
{"cpd-smiles": "COc1cc(C)c(C(=O)c2c(OC)ccc(Br)c2C)c(OC)c1OC", "value": 0}
{"cpd-smiles": "CCCOc1c(OC)cc(C)c(C(=O)c2c(OC)ccc(Cl)c2C)c1O", "value": 0}
{"cpd-smiles": "CCCOc1c(OC)cc(C)c(C(=O)c2c(OC)ccc(Br)c2C)c1OCc1ccc(C(C)(C)C)cc1", "value": 0}
